biological target: androgen receptor (Homo sapiens, UniProt P10275, T878A); construct: endogenous in cells; assay: PSA (6.1 kb)-luciferase reporter assay in LNCaP cells induced with R1881; settings: R1881 1 nM, 48 h, mean with standard error
Sequence (P10275 whole entry T878A): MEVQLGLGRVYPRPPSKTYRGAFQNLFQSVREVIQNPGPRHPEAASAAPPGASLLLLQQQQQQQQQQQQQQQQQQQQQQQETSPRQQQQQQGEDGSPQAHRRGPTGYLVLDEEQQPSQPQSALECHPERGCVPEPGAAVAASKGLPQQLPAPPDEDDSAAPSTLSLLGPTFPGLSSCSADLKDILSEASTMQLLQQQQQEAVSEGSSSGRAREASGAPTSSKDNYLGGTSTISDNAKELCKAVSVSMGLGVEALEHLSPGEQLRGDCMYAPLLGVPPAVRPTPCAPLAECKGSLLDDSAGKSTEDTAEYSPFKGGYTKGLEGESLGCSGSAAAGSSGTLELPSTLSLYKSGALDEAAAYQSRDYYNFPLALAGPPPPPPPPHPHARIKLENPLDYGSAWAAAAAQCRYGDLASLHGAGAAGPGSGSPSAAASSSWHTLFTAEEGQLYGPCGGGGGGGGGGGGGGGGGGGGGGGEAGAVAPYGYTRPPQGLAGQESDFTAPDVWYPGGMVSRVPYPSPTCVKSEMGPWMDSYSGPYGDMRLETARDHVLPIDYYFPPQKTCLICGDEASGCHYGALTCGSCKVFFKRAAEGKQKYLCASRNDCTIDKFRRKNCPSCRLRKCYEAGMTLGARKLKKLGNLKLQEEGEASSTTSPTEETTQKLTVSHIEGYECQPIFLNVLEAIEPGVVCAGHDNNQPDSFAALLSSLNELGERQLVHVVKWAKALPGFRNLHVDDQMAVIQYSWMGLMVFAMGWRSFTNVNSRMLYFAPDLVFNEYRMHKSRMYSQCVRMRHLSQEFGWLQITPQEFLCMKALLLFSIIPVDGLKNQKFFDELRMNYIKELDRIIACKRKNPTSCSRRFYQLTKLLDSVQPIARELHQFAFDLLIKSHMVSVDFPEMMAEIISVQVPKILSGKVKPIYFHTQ
pIC50: −log10 of the molar value.
attribute-measured: pIC50

// below: answered compounds
compound	test-system	measured-value
COC[C@@H](O)COc1ccc(C(C)(C)c2cc(Cl)c(OC[C@H](O)CCl)c(Cl)c2)cc1 [Compound 5a]	androgen receptor (Homo sapiens, UniProt P10275, T878A)	5.99
CC(C)(c1ccc(OC[C@H](O)CO)cc1)c1cc(Cl)c(OC[C@H](O)CCl)c(Cl)c1 [Compound 1a]	androgen receptor (Homo sapiens, UniProt P10275, T878A)	5.85
CC(C)(c1ccc(OC[C@H](O)CN2CCOCC2)cc1)c1cc(Cl)c(OC[C@H](O)CCl)c(Cl)c1 [Compound 11a]	androgen receptor (Homo sapiens, UniProt P10275, T878A)	5.98
CC(C)(c1ccc(OC[C@H](O)CNS(C)(=O)=O)cc1)c1cc(Cl)c(OC[C@H](O)CCl)c(Cl)c1 [Compound 13a]	androgen receptor (Homo sapiens, UniProt P10275, T878A)	6.00
CC(C)(c1ccc(OC[C@H](O)CO)cc1)c1ccc(OC[C@H](O)CCl)c(Cl)c1 [C, reference compound]	androgen receptor (Homo sapiens, UniProt P10275, T878A)	5.61
CC(C)(c1ccc(OC[C@H](O)Cn2ccnc2)cc1)c1cc(Cl)c(OC[C@H](O)CCl)c(Cl)c1 [Compound 9a]	androgen receptor (Homo sapiens, UniProt P10275, T878A)	5.51

(a) CC(C)(c1ccc(OC[C@H](O)CN)cc1)c1cc(Cl)c(OC[C@H](O)CCl)c(Cl)c1 [Compound 12a]
(b) CCS(=O)(=O)C[C@@H](O)COc1ccc(C(C)(C)c2cc(Cl)c(OC[C@H](O)CCl)c(Cl)c2)cc1 [Compound 14a]
(c) CC(=O)OC[C@H](COc1ccc(C(C)(C)c2ccc(OC[C@@H](CCl)OC(C)=O)cc2)cc1)OC(C)=O [B, reference compound]
rank_up(items): orders items by reported pIC50 in ascending numerical order. Please list the labels according to the requested order. c, a, b
(c: 4.97, a: 5.65, b: 6.02)
